- System: murine splenocytes
- procedure-summary: Ex vivo murine splenocytes proliferation assay (Alamar Blue), Example I
- Type: cell-based, BALB/c mice
- measurement-parameters: peptide 2000 μg mL^−1, 96 h, without ConA
Marks after values point to notes of the source that are not given here.
// values below are reported Stimulation index, proliferation of resting murine splenocytes

Answered cases to consult:
1) EILLQK (UniProt P02754 71-76, looked up, fragment) [β-Lg f55-60] :: 1.54**
2) ALPMHIR (listed as Homo sapiens) [β-Lg f142-148] :: 1.73**
3) VAGTWY (UniProt P02754 31-36, looked up, fragment) [β-Lg f15-20] :: 1.42**

Kindly state the measured Stimulation index, proliferation of resting murine splenocytes obtained for VLVLDTDYKKYLLF (listed as Homo sapiens) [β-Lg f92-105] with murine splenocytes.
1.55**

---

- Tested on: murine splenocytes
- procedure-summary: Ex vivo murine splenocytes proliferation assay (Alamar Blue), Example I
- Assay type: cell-based, BALB/c mice
- measurement-parameters: peptide 500 μg mL^−1, 72 h, ConA 0.5 μg/mL
Marks after values point to notes of the source that are not given here.
property-name: Stimulation index, proliferation of murine splenocytes in the presence of Concavanalin A

# count of solved cases: 6
1. IDALNENK [β-Lg f84-91] :: 2.24
2. ALKALPMHIR (listed as Homo sapiens) [β-Lg f139-148] :: 2.36*
3. EILLQK (UniProt P02754 71-76, looked up, fragment) [β-Lg f55-60] :: 1.98
4. VAGTWY (UniProt P02754 31-36, looked up, fragment) [β-Lg f15-20] :: 1.67
5. VLVLDTDYKKYLLF (listed as Homo sapiens) [β-Lg f92-105] :: 2.27**
6. RELKDLK [α-La f10-16] :: 1.95

Now, please, on to the next substance.
Sample ALPMHIR (listed as Homo sapiens) [β-Lg f142-148] — what was its Stimulation index, proliferation of murine splenocytes in the presence of Concavanalin A?
2.36

---

Below, each entry is listed with its recorded Stimulation index, proliferation of murine splenocytes in the presence of Concavanalin A.
- Test system: murine splenocytes
- procedure-summary: Ex vivo murine splenocytes proliferation assay (Alamar Blue), Example I
- Type: cell-based, BALB/c mice
- measurement-parameters: peptide 2000 μg mL^−1, 72 h, ConA 0.5 μg/mL
- Description: Ex vivo murine splenocytes proliferation assay. The splenocytes were isolated from 6- to 12-weeks-old female BALB/c mice (Charles River, St-Constant, QC, Canada) and cultured in the absence and presence of suboptimal concentration of ConA (0.5 μg/mL). […] Cell proliferation was evaluated by the reduction of the fluorochrome Alamar Blue™ (BioSource international, Camarillo, Calif., USA), which was added into the wells for the last 24 h of the incubation periods. […]
Marks after values point to notes of the source that are not given here.

1. ALPMHIR (listed as Homo sapiens) [β-Lg f142-148] :: 2.63**
2. VLVLDTDYKKYLLF (listed as Homo sapiens) [β-Lg f92-105] :: 2.69**
3. ALKALPMHIR (listed as Homo sapiens) [β-Lg f139-148] :: 2.73**

Stimulation index, proliferation of murine splenocytes in the presence of Concavanalin A lookup needed for RELKDLK [α-La f10-16] , thanks.
2.26**

Next: IDALNENK [β-Lg f84-91]
2.16

Would you mind doing EILLQK (UniProt P02754 71-76, looked up, fragment) [β-Lg f55-60] as well?
2.34**

Another substance to check: VAGTWY (UniProt P02754 31-36, looked up, fragment) [β-Lg f15-20]
1.77

---

We begin with a simple list: items and their reported Stimulation index, proliferation of resting murine splenocytes.
- Tested on: murine splenocytes
- procedure-summary: Ex vivo murine splenocytes proliferation assay (Alamar Blue), Example I
- Type: cell-based, BALB/c mice
- measurement-parameters: peptide 2000 μg mL^−1, 96 h, without ConA
- Experimental: Ex vivo murine splenocytes proliferation assay. The splenocytes were isolated from 6- to 12-weeks-old female BALB/c mice (Charles River, St-Constant, QC, Canada) and cultured in the absence and presence of suboptimal concentration of ConA (0.5 μg/mL). […] Cell proliferation was evaluated by the reduction of the fluorochrome Alamar Blue™ (BioSource international, Camarillo, Calif., USA), which was added into the wells for the last 24 h of the incubation periods. […]
Marks after values point to notes of the source that are not given here.

1) ALKALPMHIR (listed as Homo sapiens) [β-Lg f139-148] :: 1.77**
2) RELKDLK [α-La f10-16] :: 1.97**

Now turn to the next substance.
Request the reported Stimulation index, proliferation of resting murine splenocytes associated with IDALNENK [β-Lg f84-91]
1.27**

Numbers sourced from patent US20090297545A1.
